Overview of recorded inhibition for various molecules
- Assay Overview: Inhibition of PKA at 10 uM by mobility shift assay
Express the reported value numerically, then name its unit.

• NCc1ccc(-c2cn3c(-c4cn[nH]c4)cnc3cn2)cc1 = -6%
• O=S(=O)(NCCNC/C=C/c1ccc(Br)cc1)c1cccc2cnccc12 = 100%
• OCc1cccc(-c2cn3c(-c4cn[nH]c4)cnc3cn2)c1 = -1%

Here's the next entry for you.
State its inhibition for this molecule: c1ccc2c(-c3cnc4cnc(-c5cn[nH]c5)cn34)c[nH]c2c1
2%

###

- Subject Of Test: RAC-beta serine/threonine-protein kinase (Homo sapiens)
- Assay Overview: Inhibition of AKT2 at 10 uM by mobility shift assay
This section presents molecules with their documented inhibition values.
// return numeric value only (unit: %, not printed)

• c1n[nH]cc1-c1cnc2ncc(-c3cn[nH]c3)n2c1 = -5
• OCc1ccc(-c2cn3c(-c4cn[nH]c4)cnc3cn2)cc1 = -8
• O=S(=O)(NCCNC/C=C/c1ccc(Br)cc1)c1cccc2cnccc12 = 84

Answer with the recorded inhibition of NCc1ccc(-c2cn3c(-c4cn[nH]c4)cnc3cn2)cc1 only.
5

Retrieve inhibition measured for OCc1cccc(-c2cn3c(-c4cn[nH]c4)cnc3cn2)c1 and print it.
2

In one line, give reported inhibition of the entry c1ccc2c(-c3cnc4cnc(-c5cn[nH]c5)cn34)c[nH]c2c1 .
14

Respond only with inhibition recorded for c1ccc(-c2cnc3cnc(-c4cc[nH]n4)cn23)cc1
-7

###

- Subject Of Test: Mitogen-activated protein kinase 14 (Homo sapiens) (UniProt Q16539)
- Sequence (Q16539 whole entry): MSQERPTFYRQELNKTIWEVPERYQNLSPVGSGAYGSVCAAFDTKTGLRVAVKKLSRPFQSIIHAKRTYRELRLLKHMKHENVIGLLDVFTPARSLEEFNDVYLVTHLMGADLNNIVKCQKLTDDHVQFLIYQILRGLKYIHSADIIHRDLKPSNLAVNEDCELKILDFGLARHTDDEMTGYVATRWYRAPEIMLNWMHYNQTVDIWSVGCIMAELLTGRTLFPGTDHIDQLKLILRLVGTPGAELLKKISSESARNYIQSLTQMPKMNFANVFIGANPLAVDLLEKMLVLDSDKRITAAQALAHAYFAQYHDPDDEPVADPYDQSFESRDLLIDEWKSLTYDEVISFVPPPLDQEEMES
- Assay Overview: Inhibition of p38alpha at 10 uM by mobility shift assay
Quantity: inhibition (%)
Give the value, in units of %, as a plain number.

# annotated cases, reported inhibition shown
* O=S(=O)(NCCNC/C=C/c1ccc(Br)cc1)c1cccc2cnccc12 | 7
* c1n[nH]cc1-c1cnc2ncc(-c3cn[nH]c3)n2c1 | 1
* OCc1cccc(-c2cn3c(-c4cn[nH]c4)cnc3cn2)c1 | 2
* NCc1ccc(-c2cn3c(-c4cn[nH]c4)cnc3cn2)cc1 | 4

Tell me its inhibition given c1ccc(-c2cnc3cnc(-c4ccncc4)cn23)cc1 as the entry.
2

###

- Subject Of Test: Serine/threonine-protein kinase D2 (Homo sapiens) (UniProt Q9BZL6)
- Sequence (Q9BZL6 whole entry): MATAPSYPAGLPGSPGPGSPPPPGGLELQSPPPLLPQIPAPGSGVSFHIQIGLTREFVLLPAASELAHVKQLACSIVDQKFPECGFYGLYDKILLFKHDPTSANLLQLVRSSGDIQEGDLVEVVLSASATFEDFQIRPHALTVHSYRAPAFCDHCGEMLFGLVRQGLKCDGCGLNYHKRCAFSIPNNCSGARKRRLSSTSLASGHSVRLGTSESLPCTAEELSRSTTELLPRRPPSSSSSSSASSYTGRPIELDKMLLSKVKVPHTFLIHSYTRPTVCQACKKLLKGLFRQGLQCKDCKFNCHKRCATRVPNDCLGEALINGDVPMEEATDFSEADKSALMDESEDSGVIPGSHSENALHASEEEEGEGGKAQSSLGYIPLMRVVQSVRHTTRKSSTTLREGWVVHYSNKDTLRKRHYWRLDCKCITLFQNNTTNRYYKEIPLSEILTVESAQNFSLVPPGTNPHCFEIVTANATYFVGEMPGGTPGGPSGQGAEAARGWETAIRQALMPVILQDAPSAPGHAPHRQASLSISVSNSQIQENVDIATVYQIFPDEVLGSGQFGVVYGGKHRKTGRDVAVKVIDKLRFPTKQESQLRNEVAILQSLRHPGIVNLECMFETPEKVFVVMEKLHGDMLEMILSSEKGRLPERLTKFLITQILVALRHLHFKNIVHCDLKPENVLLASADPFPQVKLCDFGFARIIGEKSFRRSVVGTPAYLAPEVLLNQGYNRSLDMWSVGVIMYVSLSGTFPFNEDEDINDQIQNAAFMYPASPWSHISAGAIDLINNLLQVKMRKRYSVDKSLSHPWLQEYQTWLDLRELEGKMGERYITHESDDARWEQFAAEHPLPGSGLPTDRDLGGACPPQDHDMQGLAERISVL
- Assay Overview: Inhibition of PKD2 at 10 uM by mobility shift assay
Quantity: inhibition (%)
Response body: numeric value in %, unit text excluded.

Some solved cases for reference:
* NCc1ccc(-c2cn3c(-c4cn[nH]c4)cnc3cn2)cc1 | 53
* c1ccc(-c2cnc3cnc(-c4ccncc4)cn23)cc1 | -6
* OCc1ccc(-c2cn3c(-c4cn[nH]c4)cnc3cn2)cc1 | 10
* OCc1cccc(-c2cn3c(-c4cn[nH]c4)cnc3cn2)c1 | 14
* c1n[nH]cc1-c1cnc2ncc(-c3cn[nH]c3)n2c1 | 11

--- query ---
Check the records and state inhibition for c1ccc2c(-c3cnc4cnc(-c5cn[nH]c5)cn34)c[nH]c2c1
55

###

- Subject Of Test: Mitogen-activated protein kinase 1 (Homo sapiens)
- Assay Overview: Inhibition of ERk2 at 10 uM by mobility shift assay
Readings of inhibition for the listed molecules
Form entry: value (%) — number only.

Worked examples follow.
* c1n[nH]cc1-c1cnc2ncc(-c3cn[nH]c3)n2c1 | 5
* OCc1cccc(-c2cn3c(-c4cn[nH]c4)cnc3cn2)c1 | 1
* c1ccc(-c2cnc3cnc(-c4ccncc4)cn23)cc1 | -3
* O=S(=O)(NCCNC/C=C/c1ccc(Br)cc1)c1cccc2cnccc12 | 45
* c1ccc(-c2cnc3cnc(-c4cc[nH]n4)cn23)cc1 | 5

Give recorded inhibition. OCc1ccc(-c2cn3c(-c4cn[nH]c4)cnc3cn2)cc1
6

Return inhibition for the following molecule: NCc1ccc(-c2cn3c(-c4cn[nH]c4)cnc3cn2)cc1
9

Provide inhibition value for the following molecule: c1ccc2c(-c3cnc4cnc(-c5cn[nH]c5)cn34)c[nH]c2c1
39

Measured values drawn from ChEMBL document CHEMBL1177828 for this set.
